Cited source for all entries: ChEMBL document CHEMBL3627597

# System: Blood
# METHOD: Biodistribution in Sprague-Dawley rat blood at 1.48 to 2.22 MBq, iv measured at 30 mins by gamma counting analysis
# Format: ADME, organism-based
# MEASUREMENT CONDITIONS: in vivo, 0.5 h
# Drug uptake per entry
Please format your answer as a value with the unit trailing.

# COMPOUND STRUCTURE STRING, TARGET OR SYSTEM, Drug uptake
data = [
    ("Cn1cc(-c2ccncc2)c(-c2ccc(OCc3nc4ccccc4cc3OCC[18F])cc2)n1", "Blood", "0.306 % ID/g"),
]

Look up Drug uptake: Cn1cc(-c2ccncc2)c(-c2ccc(OCc3cc(CCC[18F])c4ccccc4n3)cc2)n1 0.345 % ID/g

Look up Drug uptake: Cn1cc(-c2ccncc2)c(-c2ccc(OCc3cc(C[18F])c4ccccc4n3)cc2)n1 0.416 % ID/g

Look up Drug uptake: Cn1cc(-c2ccncc2)c(-c2ccc(OCc3cc(COCC[18F])c4ccccc4n3)cc2)n1 0.424 % ID/g

---

# pIC50 per entry
# TARGET OR SYSTEM: cGMP-inhibited 3',5'-cyclic phosphodiesterase 3B (Homo sapiens, UniProt Q13370)
# Sequence (Q13370 whole entry): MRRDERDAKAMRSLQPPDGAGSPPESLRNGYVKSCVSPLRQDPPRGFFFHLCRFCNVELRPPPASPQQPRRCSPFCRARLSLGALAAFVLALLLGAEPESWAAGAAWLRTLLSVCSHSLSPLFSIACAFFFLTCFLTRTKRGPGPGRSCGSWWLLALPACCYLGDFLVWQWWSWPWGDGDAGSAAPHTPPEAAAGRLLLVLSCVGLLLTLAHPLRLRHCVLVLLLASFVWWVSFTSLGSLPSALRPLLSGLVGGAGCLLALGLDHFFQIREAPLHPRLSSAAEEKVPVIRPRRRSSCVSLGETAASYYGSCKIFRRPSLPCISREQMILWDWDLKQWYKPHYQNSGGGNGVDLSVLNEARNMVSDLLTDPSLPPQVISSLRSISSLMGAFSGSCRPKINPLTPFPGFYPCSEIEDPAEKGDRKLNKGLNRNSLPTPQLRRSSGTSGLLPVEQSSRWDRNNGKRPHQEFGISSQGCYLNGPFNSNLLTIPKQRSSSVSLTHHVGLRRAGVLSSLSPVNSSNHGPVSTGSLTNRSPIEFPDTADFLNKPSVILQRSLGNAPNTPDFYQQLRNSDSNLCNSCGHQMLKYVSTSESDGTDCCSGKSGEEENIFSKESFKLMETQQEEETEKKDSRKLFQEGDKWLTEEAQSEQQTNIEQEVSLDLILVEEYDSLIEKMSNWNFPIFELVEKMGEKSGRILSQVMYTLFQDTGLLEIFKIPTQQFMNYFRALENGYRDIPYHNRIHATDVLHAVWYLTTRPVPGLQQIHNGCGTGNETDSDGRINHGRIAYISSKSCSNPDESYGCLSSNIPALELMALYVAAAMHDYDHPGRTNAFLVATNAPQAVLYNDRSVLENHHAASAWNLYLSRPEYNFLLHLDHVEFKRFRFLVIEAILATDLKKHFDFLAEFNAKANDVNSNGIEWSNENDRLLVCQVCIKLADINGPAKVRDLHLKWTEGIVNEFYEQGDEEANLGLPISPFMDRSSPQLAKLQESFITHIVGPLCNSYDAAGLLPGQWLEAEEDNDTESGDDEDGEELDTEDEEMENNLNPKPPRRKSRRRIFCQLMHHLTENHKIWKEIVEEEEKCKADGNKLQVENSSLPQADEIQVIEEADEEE
# METHOD: Inhibition of recombinant human PDE3B assessed as reduction of [3H]-cAMP hydrolysis preincubated for 5 mins followed by [3H]-cAMP addition measured after 20 mins by scintillation proximity assay
FYI, pIC50 means -log10 of a concentration in mol per litre.

// solved cases for pIC50 follow
# COMPOUND STRUCTURE STRING, REPORTED MEASUREMENT
data = [
    ("Cn1cc(-c2ccncc2)c(-c2ccc(OCc3cc(OCCOCCF)c4ccccc4n3)cc2)n1", 4.79),
    ("Cn1ncc(-c2ccncc2)c1-c1ccc(OCc2cc(NCCF)c3ccccc3n2)cc1", 4.42),
    ("Cn1cc(-c2ccncc2)c(-c2ccc(OCc3nc4ccccc4cc3OCCF)cc2)n1", 4.70),
    ("Cn1ncc(-c2ccncc2)c1-c1ccc(OCc2cc(OCCOCCOCCOCCF)c3ccccc3n2)cc1", 4.55),
]

Look up pIC50: Cn1cc(-c2ccncc2)c(-c2ccc(OCc3cc(F)c4ccccc4n3)cc2)n1 3.99

---

# Test system: Bone
# METHOD: Biodistribution in Sprague-Dawley rat bone at 1.48 to 2.22 MBq, iv measured at 60 mins by gamma counting analysis
# Assay type: ADME, organism-based, Bone element
# MEASUREMENT CONDITIONS: in vivo, 1 h
# Drug uptake per entry
Please reply with the bare figure in % ID/g and do not write the unit itself.

# COMPOUND STRUCTURE STRING, OUTPUT UNIT, REPORTED MEASUREMENT
rows = [
    ("Cn1cc(-c2ccncc2)c(-c2ccc(OCc3cc([18F])c4ccccc4n3)cc2)n1", "% ID/g", 6.3),
]

Look up Drug uptake: Cn1cc(-c2ccncc2)c(-c2ccc(OCc3cc(C[18F])c4ccccc4n3)cc2)n1 5.62

Look up Drug uptake: Cn1cc(-c2ccncc2)c(-c2ccc(OCc3cc(CCC[18F])c4ccccc4n3)cc2)n1 2.037

---

# Ratio IC50 per entry
# Species on record: Homo sapiens
# METHOD: Selectivity ratio of IC50 for recombinant human PDE3B to IC50 for recombinant human PDE10A

// solved cases for Ratio IC50 follow
# COMPOUND STRUCTURE STRING, Ratio IC50
data = [
    ("Cn1ncc(-c2ccncc2)c1-c1ccc(OCc2cc(OCCOCCF)c3ccccc3n2)cc1", "> 210"),
    ("Cn1cc(-c2ccncc2)c(-c2ccc(OCc3cc(COCCF)c4ccccc4n3)cc2)n1", "> 210"),
]

Switching to the query record.
Look up Ratio IC50: Cn1cc(-c2ccncc2)c(-c2ccc(OCc3ccc4cc(OCCF)ccc4n3)cc2)n1 > 210
